TARGET_OR_TEST_SYSTEM: Probable G-protein coupled receptor 32 (Homo sapiens)
TEST_METHOD_NOTES: qHTS for Agonists of Human Resolvin D1 Receptor DRV1
RUN_PARAMETERS: CHO-K1 GPR32 beta-arrestin PathHunter luminescence, 90 min; at 76.9 µM; active compounds read high; zero percent set by DMSO-only wells
Among all 48,000 compounds or so, about 1,200 (2.5%) were called active. Inconclusive results (about 2%) are left out. Shown is part of a subset that was picked to be rich in actives.
PROPERTY_MEASURED: activation (%)
State just the number; it will be interpreted in %.

Solved cases below.
* CC(Nc1ccc(-c2nc(-c3ccco3)no2)cc1[N+](=O)[O-])c1ccccc1 (stereo unspecified) | -14.5
* CCn1cc(CCC(=O)NCc2ccc(F)cc2)c2ccccc21 | -18.2
* Cc1oc2ccc(O)c(CN3CCC(C)CC3)c2c1C(=O)Nc1ccccc1 | 17.2
* CCOCCn1ccc2c(OCC(=O)NCc3ccc(C)cc3)cccc2c1=O | -7.09
* O=C(NCCc1csc(-c2ccc(C(F)(F)F)cc2)n1)C(=O)Nc1ccc(F)c(Cl)c1 | -7.23

QUERY: Name the recorded activation for `Cc1cccc(CNS(=O)(=O)c2ccc(-c3cnc(C4CC4)o3)cc2)c1` .
RESULT: -14.5

QUERY: Look up activation: `CCOC(=O)c1ccc(CN(Cc2ccccc2)S(=O)(=O)c2ccc(Cl)cc2)cc1`
RESULT: -16.7

###

TARGET_OR_TEST_SYSTEM: Probable G-protein coupled receptor 32 (Homo sapiens) (UniProt O75388)
Sequence (O75388 whole entry, looked up): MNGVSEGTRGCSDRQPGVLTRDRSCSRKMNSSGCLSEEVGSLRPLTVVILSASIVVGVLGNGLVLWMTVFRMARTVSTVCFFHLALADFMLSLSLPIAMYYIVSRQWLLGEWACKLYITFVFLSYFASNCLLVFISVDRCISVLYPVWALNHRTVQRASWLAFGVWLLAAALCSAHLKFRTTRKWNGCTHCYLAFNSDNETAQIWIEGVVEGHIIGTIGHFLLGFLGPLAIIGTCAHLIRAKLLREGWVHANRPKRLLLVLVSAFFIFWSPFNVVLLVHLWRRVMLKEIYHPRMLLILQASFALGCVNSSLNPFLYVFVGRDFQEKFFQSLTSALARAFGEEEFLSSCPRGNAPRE
TEST_METHOD_NOTES: qHTS for Agonists of Human Resolvin D1 Receptor DRV1
RUN_PARAMETERS: CHO-K1 GPR32 beta-arrestin PathHunter luminescence, 90 min; at 76.9 µM; zero percent set by DMSO-only wells
The whole screen tested about 48,000 compounds, of which about 1,200 (2.5%) were called active. Not shown: some 2% with an inconclusive outcome.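 Rule for the calls: active = activation of at least 60% and not above a set upper limit (about 1 call in 100 departs from these limits); inconclusive = activation of 40% to 60%, or above that upper limit; inactive = activation under 40%.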 The full list was thinned out, with actives kept by preference.
Outcome field: choose from class 1 for active, class 0 for inactive

Examples with answers:
* CCOc1cccc(NC(=O)CSc2ncc(-c3ccc(Cl)cc3)[nH]2)c1 | class 0
* COC(=O)c1ccc(NC(=O)CCc2c(C)nc3c(c(C)nn3-c3ccc(C)cc3)c2C)cc1 | class 0

QUERY: GET /call?item= `Cc1cccc(NC(=O)CSc2ncc(-c3ccccc3)[nH]2)c1C` returns the recorded outcome of this test.
RESULT: class 1

QUERY: Call for entry `Cc1nnc(SCc2cc(=O)c3cc(F)ccc3[nH]2)n1C` :
RESULT: class 0

QUERY: Kindly provide the recorded test outcome for the following compound: COc1ccc(NC(=O)CSc2nc3ccccc3n2CC(=O)N2CCCCC2C)cc1 (stereo not given)
RESULT: class 0

QUERY: For `Cn1c(=O)n(C)c2cc(NS(=O)(=O)c3ccc(F)cc3)ccc21` , which call appears in the assay record?
RESULT: class 0

QUERY: Could you please tell me the result logged for `COC(=O)c1ccc2c(c1)N(CC(=O)Nc1ccc(C)c(C)c1)C(=O)c1ccccc1S2` in this assay?
RESULT: class 0

QUERY: Record request — test call for Cc1ccc(NC(=O)c2ccc(CN3CC(=O)N4CCCCC4C3=O)cc2)c(Cl)c1 (stereo not given)
RESULT: class 0

QUERY: Dear all, I need the recorded test outcome for COc1cccc(N=C2SC(C(=O)Nc3cccc(Cl)c3)CC(=O)N2C)c1 (stereo not given) , thank you.
RESULT: class 1

QUERY: How did this test come out for `COc1cccc(NC(=O)Nc2ccc3c(c2)N(C)C(=O)c2ccccc2S3)c1` ?
RESULT: class 0

###

TARGET_OR_TEST_SYSTEM: Probable G-protein coupled receptor 32 (Homo sapiens) (UniProt O75388)
TEST_METHOD_NOTES: qHTS for Agonists of Human Resolvin D1 Receptor DRV1
RUN_PARAMETERS: CHO-K1 GPR32 beta-arrestin PathHunter luminescence, 90 min; at 76.9 µM; zero percent set by DMSO-only wells
Among all 48,000 compounds or so, about 1,200 (2.5%) were called active. Not shown: some 2% with an inconclusive outcome.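 How the source made its calls: active means activation of at least 60% and not above a set upper limit (about 1 call in 100 departs from these limits); inconclusive means activation of 40% to 60%, or above that upper limit; inactive means activation under 40%.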 The sample holds actives, similar compounds and a random draw of the others, so the mix is not that of the screen.
Hi there, use one of these labels in your reply, thanks! True = active, False = inactive

- Cc1ccccc1OCC(=O)Nc1nnc(S(=O)(=O)N2CCCC2)s1: False
- Cc1ccc(C)c(Oc2c(C(F)(F)F)oc3c(CN4CCN(C)CC4)c(O)ccc3c2=O)c1: False
- Cc1ccc(C)c(S(=O)(=O)n2nc(C)c(S(=O)(=O)N3CCC(C)CC3)c2C)c1: False
- Cn1c(C(=O)Nc2cccc(C(F)(F)F)c2)cc2c(=O)n3ccccc3nc21: False
- Cc1cc(Nc2cccc(C(F)(F)F)c2)nc2ccc(NC(=O)c3ccc(=O)[nH]c3)cc12: True
- CC1CCCCN1Cc1c(O)ccc2c(=O)c(-c3cccc(Cl)c3)c(C(F)(F)F)oc12 (stereo not given): False
- COc1ccc(-c2noc(CSc3nc4ccc(C)cc4[nH]3)n2)cc1: False
- Cc1ccccc1C(=O)NCc1nc(-c2ccc(Cl)cc2)no1: False

QUERY: Name the outcome recorded for `CC(C)CC(=O)Nc1nnc(S(=O)(=O)N(C)c2ccc(Cl)cc2)s1` in the assay.
RESULT: False

QUERY: Call for entry `COc1cccc(C(=O)Nc2nnc(S(=O)(=O)N3CCOCC3)s2)c1` :
RESULT: True

QUERY: # lookup: test call for `CCn1cc(C(=O)N2CCN(c3cc(Cl)ccc3C)CC2)c(=O)c2cc(S(=O)(=O)N3CCCC3)ccc21`
RESULT: False

QUERY: // param item: CCC1CCCCN1Cc1c(O)ccc2c(=O)c(Oc3ccccc3Cl)c(C(F)(F)F)oc12 (stereo not given) ; yields the recorded call
RESULT: True

QUERY: Record request — test call for `Cc1ccc(S(=O)(=O)N2CCCc3cc(NS(=O)(=O)c4cc(C)ccc4C)ccc32)cc1`
RESULT: False

QUERY: What did this assay record as the result for CCOc1ccc(C2CC(=O)c3c([nH]c(C(=O)OCc4ccccc4)c3C)C2)cc1 (stereo not given) ?
RESULT: False

QUERY: Which result was noted for this compound in the test: `CCOC(=O)c1ccc(NC(=O)c2nc(SCc3ccc(F)cc3)ncc2Cl)cc1`
RESULT: False

###

TARGET_OR_TEST_SYSTEM: Probable G-protein coupled receptor 32 (Homo sapiens) (UniProt O75388)
TEST_METHOD_NOTES: qHTS for Agonists of Human Resolvin D1 Receptor DRV1
RUN_PARAMETERS: CHO-K1 GPR32 beta-arrestin PathHunter luminescence, 90 min; at 76.9 µM; active compounds read high; zero percent set by DMSO-only wells
About 1,200 (2.5%) of roughly 48,000 compounds were called active. Roughly 2% stayed inconclusive and do not appear here. Many of the other results were omitted from the sample, so actives are more common in it than they were.
PROPERTY_MEASURED: activation (%)
The reply should be a number in %, with the unit left off.

The following compounds have reported results that may help.
• O=C(CSc1n[nH]c(-c2ccccc2)n1)N1CCCCC1 = 7.63
• COc1ccc(NC(=O)Cn2c(=O)n(Cc3ccc(C(=O)NCc4ccccc4Cl)cc3)c(=O)c3ccccc32)cc1 = -4.2
• COCCCNC(=O)C1CCC(CNS(=O)(=O)c2ccc(OC)cc2)CC1 (stereo not given) = -7.55

// moving on: another record for activation
QUERY: What value of measured activation is listed for `Brc1cccc(-c2nnn3c2nc(NC2CCCCC2)c2ccccc23)c1` ?
RESULT: -7

###

# activation per entry
TARGET_OR_TEST_SYSTEM: Probable G-protein coupled receptor 32 (Homo sapiens) (UniProt O75388)
TEST_METHOD_NOTES: qHTS for Agonists of Human Resolvin D1 Receptor DRV1
RUN_PARAMETERS: CHO-K1 GPR32 beta-arrestin PathHunter luminescence, 90 min; at 76.9 µM; active compounds read high; zero percent set by DMSO-only wells
In all, about 48,000 compounds went through this assay and about 1,200 (2.5%) were called active. Inconclusive results (about 2%) are left out. For the sample, actives were picked, then their nearest neighbours and some compounds at random.
Number in %, nothing else.

# annotated cases, reported activation shown
* O=C(COCc1cc(-c2ccc3c(c2)OCO3)on1)N1CCN(c2cccc(Cl)c2)CC1 | -10.3
* COc1ccc(OCCCn2c(C3CC(=O)N(c4ccc(F)cc4)C3)nc3ccccc32)cc1 (centres undefined) | 1.68

QUERY: Fill blank: measured activation of the compound `CSc1ccccc1-c1nnc(NC(=O)c2ccc3c(c2)OCCO3)o1` is ____.
RESULT: -21.8

QUERY: Any idea what its activation is? The compound is Cc1cccc(NC(=O)C2CCCN2S(=O)(=O)c2cccc3nsnc23)c1C (centres undefined)
RESULT: 8.79
